target_of_assay: pEGFR (Tyr1068) in PC-9 cells (Ex19Del) (Homo sapiens (Human), UniProt P00533, DEL746-750)
Sequence (P00533 other isoform, or with tags, fused parts or gaps del 746-750): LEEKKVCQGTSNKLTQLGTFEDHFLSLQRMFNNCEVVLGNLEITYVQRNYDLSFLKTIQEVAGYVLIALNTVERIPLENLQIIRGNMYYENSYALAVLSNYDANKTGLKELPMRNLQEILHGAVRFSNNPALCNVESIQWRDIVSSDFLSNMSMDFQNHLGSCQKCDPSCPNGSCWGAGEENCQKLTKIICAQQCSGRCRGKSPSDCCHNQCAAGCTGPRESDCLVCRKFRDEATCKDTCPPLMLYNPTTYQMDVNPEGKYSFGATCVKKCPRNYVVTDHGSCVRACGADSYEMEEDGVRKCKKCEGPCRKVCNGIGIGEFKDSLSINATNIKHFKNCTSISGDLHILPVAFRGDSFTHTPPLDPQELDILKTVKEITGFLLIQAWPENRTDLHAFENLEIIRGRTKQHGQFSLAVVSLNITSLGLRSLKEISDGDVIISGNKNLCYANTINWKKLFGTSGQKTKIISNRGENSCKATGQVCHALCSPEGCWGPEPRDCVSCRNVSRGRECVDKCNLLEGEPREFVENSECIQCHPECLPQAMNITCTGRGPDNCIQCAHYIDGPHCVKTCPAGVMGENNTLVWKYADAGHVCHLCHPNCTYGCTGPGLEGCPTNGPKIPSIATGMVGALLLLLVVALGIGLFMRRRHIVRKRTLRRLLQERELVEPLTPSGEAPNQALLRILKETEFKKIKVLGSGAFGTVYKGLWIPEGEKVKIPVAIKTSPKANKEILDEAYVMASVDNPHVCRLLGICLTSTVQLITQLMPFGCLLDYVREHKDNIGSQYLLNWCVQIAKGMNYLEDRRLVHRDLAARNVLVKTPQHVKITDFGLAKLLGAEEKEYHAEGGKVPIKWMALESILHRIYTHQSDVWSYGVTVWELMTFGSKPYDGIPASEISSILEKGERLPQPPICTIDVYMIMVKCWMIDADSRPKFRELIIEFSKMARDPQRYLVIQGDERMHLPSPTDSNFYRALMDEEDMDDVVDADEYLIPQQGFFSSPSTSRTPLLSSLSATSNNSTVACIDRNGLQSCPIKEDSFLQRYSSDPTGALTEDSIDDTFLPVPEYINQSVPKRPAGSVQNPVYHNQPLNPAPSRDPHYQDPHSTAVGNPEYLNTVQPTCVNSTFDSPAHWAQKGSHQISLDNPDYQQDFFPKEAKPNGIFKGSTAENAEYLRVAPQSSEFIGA
procedure_summary: PC-9 pEGFR AlphaLISA assay
cond: 4 hours incubation, p-EGFR (Tyr1068) AlphaLISA, read-out: Ext pEGFR_PC-9 Ex19Del IC50
Method: PC-9/A431 pEGFR AlphaLISA Assays Inhibitory effects of compounds were evaluated in cellular assays that measure level of intracellular phosphorylation of EGFR in PC-9 (ECACC, #90071810, Milipore/Sigma) and A431 cell lines (ATCC, CRL-1555) using AlphaLISA sureFire ultra p-EGFR (Tyr1068) assay kit (PerkinElmer, ALSU-PEGFR-A50K). […] On the next day, the plate was read the Envision using standard AlphaLisa settings. […]
log10 of IC50 by entry:
measurement_name: log10 of IC50 (log10 of the value in nM)

- compound: "COc1cc2ncnc(-c3cn(C)nc3-c3ccccc3)c2nc1O[C@H](C)c1cccnc1F"
  log10 of IC50: 0.04
- compound: "COc1cc2ncnc(-c3cn(C)nc3-c3ccccc3)c2cc1OC(=O)N1C[C@H](C)OC[C@@H]1C (racemic)"
  log10 of IC50: 1.13
- compound: "CCn1cc(-c2ncnc3cc(OC)c(NC(=O)C45CC(C4)C5)nc23)c(-c2ccccc2)n1"
  log10 of IC50: -0.22
- compound: "CCC(=O)Nc1cc2c(-c3cn(C)nc3-c3c(F)cccc3F)ncnc2cc1-c1ccn(C)n1"
  log10 of IC50: -0.40
- compound: "COc1cc2ncnc(-c3cn(C)nc3-c3ccccc3)c2nc1OC(C)c1cn(C)nn1 (centres unmarked)"
  log10 of IC50: 0.40
- compound: "COc1cc2ncnc(-c3cn(C)nc3-c3ccccc3F)c2cc1N1CCOCC1"
  log10 of IC50: 0.58
- compound: "COc1cc2ncnc(-c3cn(C)nc3-c3ccccc3)c2nc1NC(=O)[C@H](C)N(C)C"
  log10 of IC50: 0.94
- compound: "COc1cc2ncnc(-c3cn(C)nc3-c3ccc(F)cc3)c2nc1NC(=O)[C@@]12CN(C)C[C@@H]1C2(F)F (single isomer, unassigned)"
  log10 of IC50: 0.11
- compound: "COc1cc2ncnc(-c3cn(C)nc3-c3ccccc3)c2cc1[C@H]1CN(C)CCO1 (single isomer, unassigned)"
  log10 of IC50: 0.43
- compound: "COc1cc2ncnc(-c3cn(C)nc3-c3ccccc3)c2nc1O[C@H](C)c1ncsc1C (single isomer, unassigned)"
  log10 of IC50: 0.43
- compound: "COc1cc2ncnc(-c3cn(C)nc3-c3ccc(F)cc3F)c2nc1NC(=O)C12CC(C1)C2"
  log10 of IC50: 0.28
- compound: "COc1cc2ncnc(-c3cn(C)nc3-c3ccccc3)c2nc1OC(=O)N1CCOC[C@H]1C"
  log10 of IC50: 0.48
- compound: "COc1cc2ncnc(-c3cn(C)nc3-c3ccccc3)c2cc1NC(=O)C1CC(OC)C1 (centres unmarked)"
  log10 of IC50: 0.04
- compound: "COc1cc2ncnc(-c3cn(C)nc3-c3ccccc3)c2cc1NC(=O)c1ccnn1C(C)C"
  log10 of IC50: 0.43
- compound: "Cn1cc(-c2ccc3c(-c4c[nH]nc4-c4cccc(Cl)c4)ncnc3c2)cn1"
  log10 of IC50: 0.04
- compound: "CN(C)CCOc1cc2ncnc(-c3cn(C)nc3-c3ccccc3)c2cc1NC(=O)c1ccccc1F"
  log10 of IC50: 0.54
- compound: "COc1cc2ncnc(-c3cn(C)nc3-c3ccccc3)c2cc1NC(=O)[C@H](C)N(C)C (single isomer, unassigned) [Example 237]"
  log10 of IC50: 0.82
- compound: "COc1cc2ncnc(-c3cn(CC(F)F)nc3-c3ccccc3)c2cc1NC(=O)c1cnn(C(C)C)c1"
  log10 of IC50: 0.15
- compound: "Cn1cc(-c2ncnc3cc(O)c(NC(=O)C4(C(F)(F)F)CC4)nc23)c(-c2ccccc2)n1"
  log10 of IC50: 0.15
- compound: "Cn1cc(-c2ccc3c(-c4c[nH]nc4-c4ccccc4F)ncnc3c2)cn1"
  log10 of IC50: -0.52
- compound: "CCOc1cc2ncnc(-c3cn(C)nc3-c3ccc(F)cc3)c2nc1NC(=O)[C@@]12C[C@@H]1CN(C)C2 (single isomer, unassigned)"
  log10 of IC50: 0.40
- compound: "COc1cc2ncnc(-c3cn(C)nc3-c3ccccc3F)c2nc1NC(=O)[C@@]12COC[C@@H]1C2 (single isomer, unassigned)"
  log10 of IC50: 0.18
- compound: "COc1cc2ncnc(-c3cn(C)nc3-c3ccccc3)c2cc1NC(=O)c1cnccc1F"
  log10 of IC50: 0.00
- compound: "COc1cc2ncnc(-c3cn(CC(F)F)nc3-c3ccccc3)c2cc1NC(=O)c1cnc(C)s1"
  log10 of IC50: -0.22
- compound: "COc1cc2ncnc(-c3cn(C)nc3-c3ccccc3F)c2cc1NC(=O)c1ccc(C2CC2)nc1"
  log10 of IC50: 0.36
- compound: "COc1cc2ncnc(-c3cn(C)nc3-c3ccccc3)c2cc1OC(=O)N1C[C@H](C)N(C)C[C@@H]1C"
  log10 of IC50: 1.09
- compound: "[2H]C([2H])([2H])Oc1cc2ncnc(-c3cnn(C([2H])([2H])[2H])c3-c3ccccc3)c2nc1NC(=O)C1(C(F)(F)F)CC1"
  log10 of IC50: 2.24
- compound: "COc1cc2ncnc(-c3cn(C)nc3-c3ccccc3)c2cc1-c1ccc2n[nH]cc2c1C"
  log10 of IC50: 0.77
- compound: "COc1cc2ncnc(-c3sc(C)nc3-c3ccccc3)c2cc1NC(=O)C1CC1"
  log10 of IC50: 0.69
